B1: TPR 5TU (parent)
chain: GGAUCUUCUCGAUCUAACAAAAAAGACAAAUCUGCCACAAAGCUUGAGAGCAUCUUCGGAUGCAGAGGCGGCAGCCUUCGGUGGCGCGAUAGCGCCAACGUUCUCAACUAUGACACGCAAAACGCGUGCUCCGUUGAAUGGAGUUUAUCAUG

variants of: B1; experiment: polymerase ribozyme fitness, log enrichment relative to wild type (log ratio); higher = more active; in vitro selection for triplet polymerase activity
Variants at the floor of the assay were thinned out.
Quick reference for polymerase ribozyme fitness (log ratio) among some variants

Mutation id	Qualifying sign	polymerase ribozyme fitness (log ratio)
A41U A52U	=	-2.47
C14G C95G C96G	=	-4.07
A40C G140U	=	-3.39
G50A G59A C96U A122U A142G A147U	=	-3.67
U61C C69U G70U G86U A107C	≤	-4.2
G86U G92U	=	-1.95
C85U C93G	=	-3.83
C76A C118A	=	-0.944
A22U C99A	=	0.261
A28U C87G C118G	≤	-4.2
A20U A28U A39U G83A G141A	=	-4.1
A64U C69U	≤	-4.2
G50A C96A	=	-2.68
C54U C95U	=	-0.851
A73U C96G	=	-1.8
G88C C108G	≤	-4.2
C99U A147G	=	-2
A17C G88A A91G U148A	=	-4.03
C14U A16C C51U A52G C93U C116A A121C	=	-1.81
A60G G70C A89C	=	-3.24
U44G A47C A66G G67A C87A C96G U145A	≤	-4.2
C36U C79A C87U A115C A122C C131G	≤	-4.2
C85U C96U A98G A150G	=	-2.21
A24U C38G C57G G83C A91U C105A C149A	≤	-4.2
C5A U44A A73U C79U C85U G126U	≤	-4.2
U53A G92U A107U G136U	≤	-4.2
A3U C8U C27A A28C C51A A52C C54A C93U C103G C108G A115C C118A U135A A142U	≤	-4.2
A28U A73U A91G C125A A137C	≤	-4.2
C5G U9C A97G G141C	=	-3.27
C69A A91G	=	-3.81
C27A A52G G128U C129U C131G A147U	≤	-4.2
C14A C63U G71A C85G G100U	≤	-4.2
C57A G59C U146C U148A C149U	=	-3.99
C32G G59C G71C C85A G88A U151A	≤	-4.2
C36A C95U	=	-3.7
U55A G88C G133U U145C	≤	-4.2
U13C C125A G136C U145C U146C	=	-3.59
G59C A97U U139G	=	-0.518
U15A C57A C76U G84C	=	-1.52
C18U U56A C85A G124A U135G G136A	≤	-4.2
C93U A110U	=	-4.1
A40U A91C A120C C129A U151A	≤	-4.2
C43U G46C G83U	≤	-4.2
G59U C75U C76U C93G A115U	≤	-4.2
A19G U109G C118G U144A	=	-3.72
C96U A115U	=	-2.64
C51U G59C C72A	≤	-4.2
A41C G81U G86U U104C	=	-1.73
A23G C36U G50U G100A A107G C118G	≤	-4.2
C8A C14U A37G C54U C85U	≤	-4.2
A41G U146G	=	-0.0573
C5U U15G U33C	=	-4.17
A3U A17U U56A G83U C93G C96G C125G G136C	≤	-4.2
C69U	=	-1.03
C85A A91G	=	-3.36
U56A U101A	=	-0.244
C85G C96U	=	-2.26
C69A C79A A115U C118A	≤	-4.2
U53A G58C A150U	=	0.575
A22U C57A C96G A97U C118G A119C	=	-2.85
G71U C108U	≤	-4.2
A19U C38G G59C G86A C99U G117U C118A U127A A138G	≤	-4.2
C125U A150U	=	-0.413
A30C G81C A138G U146A C149U	≤	-4.2
U6G A20U C93A C116A U135A	=	-3.29
G62A C69U	=	-2.82
C36U C72U	=	-0.573
C38A G58U C95G	=	-1.52
A22G G83A C105A	=	-3.83
